src = the supplement of paper PMC12042874

Test: amyloid nucleation score (Sup35N fusion, yeast selection) (log enrichment); library NNK1; higher = more nucleation; inactive = no reads after selection;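 note: zero at mode of non-aggregating sequences after 7 days selection at 30°C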
Threshold check on amyloid nucleation score: at or above 0.2 gives Y, strictly below gives N.

Substance | Class label
RDSNVGIFHNSR | N
LVQMLTVDCATEKLHLAILS | Y
IYEMVGLTNVEFWYTKKYCS | N
WVSSEWISTC | N
DGNLKSR | Y
LDHGEFTKYFRLTRCVSTCC | N
CSSVAS | N
RVLANCLCFKYNETRRGCTL | Y
SDFQRE | Y

* * *

Assay: amyloid nucleation score (Sup35N fusion, yeast selection) (log enrichment); library NNK1; higher = more nucleation; inactive = no reads after selection
Threshold check on amyloid nucleation score: at or above 0.7 gives MET, strictly below gives NOT MET.

Substance | Class label
AIVYRQKLISQLYFARLLRH | NOT MET
CLLLVMTVTGGGSVTMLSQM | NOT MET
CYVHEFMDEPSRSNGDGVWC | NOT MET
RSPFWRDVKNKITVSPIFAN | MET
WQKSWR | MET
NYSDYMWTRLANLA | NOT MET
VYMGFVCEIVVNKEKRVGTF | NOT MET
IYRAHYAIYSAF | NOT MET
ASTYMYGFSYIYMLVNRCEC | MET
GFSANGLPCGAEAGEVFYTV | NOT MET
IRMDSCRTFYLSLSWHIYCS | NOT MET
FFVPSYLPFMMFHVLSCRDF | NOT MET
VDSLITRSWVDHHNKYNHGI | NOT MET
CWTSFYDC | NOT MET
DGYFQFKFYCTEMGMLFCFF | NOT MET
ITKLIVSFQGFFV | MET
LREFLPLSNTVVGFTLDSYV | NOT MET
RHMHSQFPAGLLIVGLRIVW | MET
SAKNTGYMWMLIWLG | NOT MET
ICGRNTLCARRRTSRLVGIE | MET
THSIFFVQLRFPFMLTTS | NOT MET
NEVPCVRRWSCRGLCARELM | NOT MET
SMIDFIRSFLYHSY | NOT MET
CSNLQLAHKRRISNWSNLWC | NOT MET
MRCPRLASSDNDPCLLSRVS | NOT MET
SGYLVSSELREFQ | MET
YRCGECNSSVMCMGLRCLWM | MET
PCLNRLVV | NOT MET
YLKMFV | NOT MET
CQSKYYIMRACCFMATLWYW | NOT MET
MHVQRVFTRCFKFSPQFVRH | NOT MET
LTTQIVIFFCWVCKDINCCK | MET
GVTWLSEISV | MET
GACYNSGCCFNPLDWYK | MET
SYCMLNAVPVEMRLTLPGIR | NOT MET
SSAGMTRTKNGPPC | MET
MHLVQSCYLVIPRVLDPELV | NOT MET
TYTCPVGNWVRMEGDLYFLA | NOT MET
VDQVQDNLKFEIGKYSYWYS | NOT MET
KYKVVI | NOT MET
SLWTLWGFSFGDT | NOT MET
PLEVWNRGVGPIGCVCRGLK | MET
PSFMMFKSYTPQDFGMH | NOT MET
RPLVGTGIYSVVRSLFRLCV | NOT MET
RIVKSGGFNR | NOT MET
HVYMGYICCHAETDACMGCR | MET
IVTSMSYNFLLKLMAGPQLR | NOT MET
ISRISVSEEFKGCMGREWVT | MET
PINLLVLIAGNFYWLWTFGQ | MET
DLQCVAKVHESVGLGHHVHE | NOT MET
NPRISCFVLQIRSAALSQSV | NOT MET
RRNHNSRVVINVLMHVRCSI | MET
EGPMLVCVLVVSTTGIGRGC | MET
SQSIAVCMVKCNCDCVHIGE | MET
MPLYLVCDFLNYGFVISVSS | MET
SALGFFRAYQSIKRTLFRRR | NOT MET
NERSSEELAPLDTQWSMLRG | NOT MET
INALYRFGWKARFSMSC | NOT MET
GAFNQSMDSCGFMFPHNMRP | MET
THNFEGLSVWDLKDLKCCS | MET
KRSANVYRLRCLGGKMLHVN | MET
FRVMDRVGSCLIVELTPG | NOT MET
DTVYLLGGCCLVVRLNLFIG | MET
MWSIYMHVAHLGMQTRGCCR | MET
